test: Tmax in CD-1 mouse at 10 mg/kg, po; type: ADME, organism-based; conditions: in vivo
Here the recorded Tmax is given for each entry.
Give just the numeric value; min need not be written.

{"columns": ["testSmiles", "unitSymbol", "Tmax"],
 "data": [
  ["Cc1ccc(NC(=O)c2ccc(CN3CCN(C)CC3)c(C(F)(F)F)c2)cc1NC(=O)c1cccc(-c2cnn(C)c2)c1", "min", 15]
]}

Query: Can you look up the measured Tmax of `Cc1ccc(NC(=O)c2cccc(C(F)(F)F)c2)cc1NC(=O)c1cncc(-c2cnn(C)c2)c1` for me?
Result: 30

---

target: Mast/stem cell growth factor receptor Kit (Homo sapiens, UniProt P10721)
Sequence (P10721 whole entry): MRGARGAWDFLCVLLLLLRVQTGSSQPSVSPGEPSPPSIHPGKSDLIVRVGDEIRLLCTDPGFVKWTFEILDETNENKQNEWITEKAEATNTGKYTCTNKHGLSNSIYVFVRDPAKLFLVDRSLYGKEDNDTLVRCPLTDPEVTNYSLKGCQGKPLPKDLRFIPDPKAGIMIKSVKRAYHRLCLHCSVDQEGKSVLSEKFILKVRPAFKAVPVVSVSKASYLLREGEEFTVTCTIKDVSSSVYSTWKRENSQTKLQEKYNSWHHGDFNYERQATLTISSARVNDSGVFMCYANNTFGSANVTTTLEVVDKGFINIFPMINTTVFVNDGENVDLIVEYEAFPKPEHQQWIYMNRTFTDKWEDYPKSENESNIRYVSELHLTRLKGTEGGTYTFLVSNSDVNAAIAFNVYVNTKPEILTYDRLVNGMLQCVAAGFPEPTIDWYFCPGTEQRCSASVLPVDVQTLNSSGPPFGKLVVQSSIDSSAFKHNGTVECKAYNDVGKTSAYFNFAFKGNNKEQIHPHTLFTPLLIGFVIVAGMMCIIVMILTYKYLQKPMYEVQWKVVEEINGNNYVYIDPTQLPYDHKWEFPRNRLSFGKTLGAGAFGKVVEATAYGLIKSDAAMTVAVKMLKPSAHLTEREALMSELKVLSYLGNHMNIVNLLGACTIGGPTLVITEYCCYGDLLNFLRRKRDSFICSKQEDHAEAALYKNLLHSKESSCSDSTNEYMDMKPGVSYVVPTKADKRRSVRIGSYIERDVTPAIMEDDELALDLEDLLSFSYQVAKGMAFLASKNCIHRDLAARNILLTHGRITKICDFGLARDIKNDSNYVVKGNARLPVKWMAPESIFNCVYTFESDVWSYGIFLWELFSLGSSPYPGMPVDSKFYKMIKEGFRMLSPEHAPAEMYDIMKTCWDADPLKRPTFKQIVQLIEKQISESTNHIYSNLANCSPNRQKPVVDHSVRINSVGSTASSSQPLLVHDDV
pIC50: −log10 of the molar value.
Label scheme for pIC50: lower than 6 is N, 6 and above is Y.

These recorded examples may help you get a feel for the data.
{"columns": ["testSmiles", "labelValue"],
 "data": [
  ["Cc1ccc(NC(=O)c2ccc(CN3CCN(C)CC3)c(C(F)(F)F)c2)cc1NC(=O)c1cccc(-c2nn[nH]n2)c1", "N"],
  ["Cc1ccc(C(=O)Nc2ccc(CN3CCN(C)CC3)cc2)cc1NC(=O)c1cccc(-c2cccs2)c1", "N"],
  ["Cc1ccc(NC(=O)c2ccc(CN3CCN(C)CC3)c(C(F)(F)F)c2)cc1NC(=O)c1cccc(-c2cccs2)c1", "N"],
  ["Cc1ccc(C(=O)Nc2ccc(CN3CCN(C)CC3)c(C(F)(F)F)c2)cc1NC(=O)c1cccc(-c2cccs2)c1", "Y"]
]}

Query: Check if pIC50 >= 6 (inclusive). Item: `Cc1ccc(NC(=O)c2ccc(CN3CCN(C)CC3)c(C(F)(F)F)c2)cc1NC(=O)c1cccc(-c2cn[nH]c2)c1`
Result: Y

Query: Check if pIC50 >= 6 (inclusive). Item: `Cc1ccc(NC(=O)c2ccc(CN3CCNCC3)c(C(F)(F)F)c2)cc1NC(=O)c1cccc(-c2cnn(C)c2)c1`
Result: N

Query: Check if pIC50 >= 6 (inclusive). Item: `Cc1ccc(NC(=O)c2ccc(CN3CCN(C)CC3)c(C(F)(F)F)c2)cc1NC(=O)c1cccc(-c2ccccn2)c1`
Result: N

Query: Check if pIC50 >= 6 (inclusive). Item: `Cc1ccc(NC(=O)c2cccc(C(F)(F)F)c2)cc1NC(=O)c1cncc(-c2cnn(C)c2)c1`
Result: Y
